FYI, the data here is from ChEMBL document CHEMBL5335826.

- Tested on: PC-3
- procedure.details: Cytotoxicity against human PC-3 cells assessed as reduction in cell viability incubated for 72 hrs by alamar blue assay
- Assay type: functional, cell-based
- run.conditions: PC-3, 72 h
quantity: IC50 (nM)

COc1cccc2c1C(=O)c1c(O)c3c(c(O)c1C2=O)C[C@@](O)(C(C)=O)C[C@@H]3O[C@H]1C[C@H](N)[C@H](O)[C@H](C)O1 [DAUNORUBICIN] | 170
CC(=O)[C@]1(O)Cc2c(O)c3c(c(O)c2[C@@H](O[C@H]2C[C@H](N)[C@H](O)[C@H](C)O2)C1)C(=O)c1c(O)cccc1C3=O [CARUBICIN] | 35
CO[C@H]1[C@H](O[C@@H]2c3c(cc4c(c3O)C(=O)c3c(O)cccc3C4=O)C(=O)[C@@](C)(O)[C@H]2OC)O[C@@H](C)[C@H](O)[C@H]1O [ARANCIAMYCIN] | 1100
COc1cccc2c1C(=O)c1c(cc3c(c1O)[C@@H](O[C@@H]1O[C@@H](C)[C@H](O)[C@@H](O)[C@H]1OC)[C@H](OC)[C@](C)(O)C3=O)C2=O | 4300
COc1cc(O)c2c(c1)C(=O)c1cc3c(c(O)c1C2=O)[C@@H](O[C@@H]1O[C@@H](C)[C@H](OC)[C@@H](O)[C@H]1OC)[C@H](OC)[C@](C)(O)C3=O | 3100
